The measured values listed here are drawn from the RNAGym collection of RNA variant scans (doi:10.7554/elife.80360).

Parameter: self-cleavage. Scope: all listed entries.
B1: Hairpin Ribozyme (parent)
chain: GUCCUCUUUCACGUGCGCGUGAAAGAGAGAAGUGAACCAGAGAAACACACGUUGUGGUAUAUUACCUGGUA

variants of: B1; test: self-cleavage, relative activity (ratio to wild type); higher = more cleavage; co-transcriptional
A bare number is all that is needed in reply.

G51A G54A	0.62

Problem: Tell me measured self-cleavage for C10G C48U please.
Result: 0.168

Problem: Write down self-cleavage measured for item G1U C18U
Result: 0.121

Problem: Return self-cleavage (reported value) for this variant: U14A G19C
Result: 0.819

Problem: Please give measured self-cleavage of the following entry: A24U A64C
Result: 0.142

Problem: Specify self-cleavage for G13C U67G and stop.
Result: 0.281

Problem: Write down self-cleavage measured for item U14A A24C
Result: 0.703

Problem: Give the reported self-cleavage for this variant. A44U G54C
Result: 0.0888

Problem: Give self-cleavage for the following variant: G34C A43U
Result: 0.233

Problem: Fill in self-cleavage for record G19A G42C
Result: 0.289

Problem: Identify self-cleavage associated with the variant C6A A44G
Result: 0.113

Problem: Tell us which self-cleavage value is on record for A43U A49U
Result: 0.27
